- Tested on: IL-1β in supernatants of peripheral blood mononuclear cells
- assayText: IL-1β assay: BzATP- or ATP-induced IL-1β release from LPS-treated human peripheral blood mononuclear cells
- Assay type: cell-based
- conditionContext: 2 h; IL-1β in supernatants of LPS-treated human PBMC; BzATP (1 mM) or ATP (5 mM), 120 min
measuredMetric: pIC50
Give bare numbers, as −log10 of the molar value.

Parameters: items (list). Returns: pIC50 for each item.
1. CCC(NC(=O)Cn1ncc(N[C@@H]2C[C@@H]3C[C@H]([C@H]2C)C3(C)C)c(Br)c1=O)c1ccncc1 (some centres unmarked)
2. CCN(CC)c1ccc(C(=O)Cn2ncc(N[C@@H]3C[C@@H]4C[C@H]([C@H]3C)C4(C)C)c(Br)c2=O)cc1
3. CC1C(Nc2cnn(CC(=O)NCc3ccnnc3)c(=O)c2Br)CC2CC1C2(C)C (centres unmarked)
4. O=C(Cn1ncc(NC2C3CCCC2CCC3)c(Br)c1=O)NCc1ccncc1 (centres unmarked)

7.48
7.09
7.41
7.40

Parameters: items (list). Returns: pIC50 for each item.
1. C[C@@H]1[C@H]2C[C@@H](C[C@H]1Nc1cnn(CC(=O)NCc3ccncc3N(C)C)c(=O)c1Cl)C2(C)C
2. CC(NC(=O)Cn1ncc(NC2C3CCCC2CCC3)c(Cl)c1=O)c1ccncc1Cl (centres unmarked)
3. C[C@@H]1[C@H]2C[C@@H](C[C@H]1Nc1cnn(CC(=O)N[C@H](C)c3ccncc3)c(=O)c1Cl)C2(C)C
4. CC(NC(=O)Cn1ncc(N[C@@H]2C[C@@H]3C[C@H]([C@H]2C)C3(C)C)c(Cl)c1=O)c1ccncc1Cl (some centres unmarked)

1: 8.37; 2: 8.82; 3: 8.51; 4: 8.48

Parameters: items (list). Returns: pIC50 for each item.
1. C[C@@H]1[C@H]2C[C@@H](C[C@H]1Nc1cnn(CCNCc3ccncc3)c(=O)c1Br)C2(C)C [Synthetic Example 47]
2. C[C@@H]1[C@H]2C[C@@H](C[C@H]1Nc1cnn(CC(=O)NCc3ccncc3S(C)(=O)=O)c(=O)c1Cl)C2(C)C
3. C[C@@H]1[C@H]2C[C@@H](C[C@H]1Nc1cnn(CC(=O)NCc3ccncc3)c(=O)c1Br)C2(C)C
4. CC(NC(=O)Cn1ncc(N[C@@H]2C[C@@H]3C[C@H]([C@H]2C)C3(C)C)c(Br)c1=O)c1ccncc1 (some centres unmarked)
5. Cc1cnncc1CNC(=O)Cn1ncc(N[C@@H]2C[C@@H]3C[C@H]([C@H]2C)C3(C)C)c(Cl)c1=O
6. CCC(NC(=O)Cn1ncc(N[C@@H]2C[C@@H]3C[C@@H](C3(C)C)[C@]2(C)O)c(Br)c1=O)c1ccncc1 (some centres unmarked)
7. COc1cnccc1CNC(=O)Cn1ncc(N[C@@H]2C[C@@H]3C[C@H]([C@H]2C)C3(C)C)c(Br)c1=O
8. C[C@@H]1[C@H]2C[C@@H](C[C@H]1Nc1cnn(CC(=O)NCc3ccnnc3N(C)C)c(=O)c1Cl)C2(C)C

7.21
7.57
7.33
7.72
7.77
7.42
7.42
7.44

Form field pIC50, entry C[C@@H]1[C@H]2C[C@@H](C[C@H]1Nc1cnn(CC(=O)NCc3ccnnc3Cl)c(=O)c1Cl)C2(C)C : 7.29

----------
Would you kindly list IC50 for each of these compounds?
- tgt: Human P2X7 (hP2X7) receptor (Homo sapiens, UniProt Q99572)
- Construct: myc-His (from the pcDNA3.1/myc-HisA vector); expressed in transfected cells
- Sequence (Q99572 whole entry): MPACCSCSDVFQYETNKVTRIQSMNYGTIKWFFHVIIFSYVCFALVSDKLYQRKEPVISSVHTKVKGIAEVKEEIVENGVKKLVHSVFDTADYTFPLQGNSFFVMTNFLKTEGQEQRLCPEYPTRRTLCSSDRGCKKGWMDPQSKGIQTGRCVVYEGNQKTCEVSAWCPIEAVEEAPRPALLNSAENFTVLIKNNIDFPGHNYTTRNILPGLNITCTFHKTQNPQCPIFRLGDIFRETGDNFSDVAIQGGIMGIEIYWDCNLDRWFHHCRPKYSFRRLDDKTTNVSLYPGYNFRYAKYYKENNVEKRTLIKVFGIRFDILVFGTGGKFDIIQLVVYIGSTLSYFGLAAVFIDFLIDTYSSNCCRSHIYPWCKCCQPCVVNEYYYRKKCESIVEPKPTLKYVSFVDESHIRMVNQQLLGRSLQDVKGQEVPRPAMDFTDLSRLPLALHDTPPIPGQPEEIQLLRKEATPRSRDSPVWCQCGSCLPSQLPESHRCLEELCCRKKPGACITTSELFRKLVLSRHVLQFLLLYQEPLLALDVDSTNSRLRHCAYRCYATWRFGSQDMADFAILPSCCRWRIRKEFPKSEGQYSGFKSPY
- assayText: Dye assay: BzATP-induced Yo-Pro-1 uptake in HEK293 cells stably expressing hP2X7
- Assay type: cell-based
- conditionContext: BzATP (0.1 mM)-induced Yo-Pro-1 uptake, compounds 30 min pre-treatment, 90 min incubation
Give bare numbers, in nM.

// solved cases for IC50 follow
- CC(NC(=O)Cn1ncc(NC2C3CCCC2CCC3)c(Cl)c1=O)c1ccncc1Cl (stereo not shown) [compound 378]: 1.5
- Cc1cncnc1CNC(=O)Cn1ncc(N[C@@H]2C[C@@H]3C[C@H]([C@H]2C)C3(C)C)c(Cl)c1=O [compound 281]: 190
- C[C@@H]1[C@H]2C[C@@H](C[C@H]1Nc1cnn(CC(=O)NCc3ccncc3)c(=O)c1C#N)C2(C)C [Synthetic Example 387]: 37

Consider now this further compound.
Form field IC50, entry C[C@@H]1[C@H]2C[C@@H](C[C@H]1Nc1cnn(CC(=O)NCc3ccncn3)c(=O)c1Br)C2(C)C [compound 103] : 14

----------
- tgt: Human P2X7 (hP2X7) receptor (Homo sapiens)
- Construct: myc-His (from the pcDNA3.1/myc-HisA vector); expressed in transfected cells
- assayText: Dye assay: BzATP-induced Yo-Pro-1 uptake in HEK293 cells stably expressing hP2X7
- Assay type: cell-based
- conditionContext: BzATP (0.1 mM)-induced Yo-Pro-1 uptake, compounds 30 min pre-treatment, 90 min incubation
measuredMetric: pIC50
One number for each entry, as −log10 of the molar value.

- CC(C)CNC(=O)Cn1ncc(N[C@@H]2C[C@@H]3C[C@H]([C@H]2C)C3(C)C)c(Br)c1=O: 7.38
- CCC(NC(=O)Cn1ncc(NC2CCCCCCC2)c(Br)c1=O)c1ccncc1 (stereo not shown): 7.57
- CC(NC(=O)Cn1ncc(N[C@@H]2C[C@@H]3C[C@H]([C@H]2C)C3(C)C)c(Br)c1=O)c1ccc(Cl)cc1 (stereo partly shown): 7.49
- O=C(Cn1ncc(NC2CCCCCCCCC2)c(Br)c1=O)NCc1ccncc1: 6.80
- CC(C(=O)NCc1ccncc1)n1ncc(N[C@@H]2C[C@@H]3C[C@H]([C@H]2C)C3(C)C)c(Br)c1=O (stereo partly shown) [Synthetic Example 46]: 7.85
- C[C@@H]1[C@H]2C[C@@H](C[C@H]1Nc1cnn(CC(=O)NCc3ccc(NS(C)(=O)=O)cc3)c(=O)c1Cl)C2(C)C: 6.89
- C[C@@H]1[C@H]2C[C@@H](C[C@H]1Nc1cnn(CC(=O)NCc3ccnc(Cl)c3)c(=O)c1Br)C2(C)C: 7.41
- CC(NC(=O)Cn1ncc(NC2C3CCCC2CCC3)c(Br)c1=O)c1ccnnc1 (stereo not shown): 8.49

Parameters: items (list). Returns: pIC50 for each item.
1. C[C@@H]1[C@H]2C[C@@H](C[C@H]1Nc1cnn(CC(=O)N/C(=N/O)c3ccncc3)c(=O)c1Br)C2(C)C
2. C[C@@H]1[C@H]2C[C@@H](C[C@H]1Nc1cnn(C3(C(=O)NCc4ccncc4)CCC3)c(=O)c1Br)C2(C)C [Synthetic Example 420]

1: 6.51; 2: 6.92

Parameters: items (list). Returns: pIC50 for each item.
1. CONC(=O)Cn1ncc(N[C@@H]2C[C@@H]3C[C@H]([C@H]2C)C3(C)C)c(Br)c1=O
2. CCOc1nn(CC(=O)c2ccc(N(CC)CC)cc2)c(=O)c(Cl)c1N[C@@H]1C[C@@H]2C[C@H]([C@H]1C)C2(C)C [Synthetic Example 140]
3. CCC(NC(=O)Cn1ncc(NC23CC4CC(CC2C4)C3)c(Br)c1=O)c1ccncc1 (stereo not shown)

1. 6.85
2. 7.82
3. 7.89

Parameters: items (list). Returns: pIC50 for each item.
1. CC(NC(=O)Cn1ncc(NC2C3CCCC2CCC3)c(Cl)c1=O)c1ccncn1 (stereo not shown)
2. C[C@@H]1[C@H]2C[C@@H](C[C@H]1Nc1cnn(CC(=O)NCc3ccnc(C#N)c3)c(=O)c1Cl)C2(C)C
3. C[C@@H]1[C@H]2C[C@@H](C[C@H]1Nc1cnn(CC(=O)NCc3ccncc3)c(=O)c1Br)C2(C)C

1. 8.22
2. 7.57
3. 8.46

Parameters: items (list). Returns: pIC50 for each item.
1. C[C@@H]1[C@H]2C[C@@H](C[C@H]1Nc1cnn(CC(=O)NCc3ccnc4ccccc34)c(=O)c1Br)C2(C)C
2. C[C@@H]1[C@H]2C[C@@H](C[C@H]1NC(=O)Cn1ncc(N[C@@H]3C[C@@H]4C[C@H]([C@H]3C)C4(C)C)c(Br)c1=O)C2(C)C
3. COc1cc(CNC(=O)Cn2ncc(N[C@@H]3C[C@@H]4C[C@H]([C@H]3C)C4(C)C)c(Br)c2=O)on1
4. CC(NC(=O)Cn1ncc(N[C@@H]2C[C@@H]3C[C@H]([C@H]2C)C3(C)C)c(Br)c1=O)c1ccncc1 (stereo partly shown)
5. C[C@@H]1[C@H]2C[C@@H](C[C@H]1Nc1cnn(CCS(=O)(=O)c3ccccc3)c(=O)c1Cl)C2(C)C
6. C[C@@H](NC(=O)Cn1ncc(NC23CC4CC(CC2C4)C3)c(Cl)c1=O)c1ccncc1
7. CCC(NC(=O)Cn1ncc(N[C@@H]2C[C@@H]3C[C@H]([C@H]2C)C3(C)C)cc1=O)c1ccncc1 (stereo partly shown)

[7.66, 7.20, 7.27, 8.20, 6.64, 8.30, 6.64]

Values were extracted from patent US8440666B2.
